Source: patent US20220009894A1

Task for the reader: assign each of the following molecules its reported Cellular Reporter Assay Amax.
Target: RORγt (Homo sapiens)
Construct: The plasmid of pFN26A-RORγt-LBD and pG14.35 (Promega, Cat. No. E1370) were co-transfected into HEK 293 cells; expressed in transfected cells; host or cells: HEK 293 cells (Cat. No. GNHu18)
Sequence (P51449 269-508 limits assumed): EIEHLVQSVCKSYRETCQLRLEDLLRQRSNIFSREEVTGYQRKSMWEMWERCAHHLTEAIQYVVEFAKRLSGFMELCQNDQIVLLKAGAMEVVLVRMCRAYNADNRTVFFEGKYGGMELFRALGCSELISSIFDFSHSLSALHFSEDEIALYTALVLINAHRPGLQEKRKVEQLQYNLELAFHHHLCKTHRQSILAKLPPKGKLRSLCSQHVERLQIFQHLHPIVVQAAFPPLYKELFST
Assay: RORγt cellular reporter gene detection assay;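 note: Ursolic Acid added as 5 µL of 20 µM medium per well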
Assay type: cell-based
Details: upper activation limit; HEK 293 cells, in presence of antagonist Ursolic acid, 24 hrs
// return a plain number; no unit text

Consider `C[C@@]1(OCCC(N)=O)CCN2c3ccc(-c4cc(F)cc(OC(F)F)c4)cc3N(S(=O)(=O)c3cccc(C(F)(F)F)c3)C[C@@H]2C1` . Its measured Cellular Reporter Assay Amax is 1.1

Consider `C/C(=C\c1ccc2c(c1)N(S(=O)(=O)c1cccc(C(F)(F)F)c1)C[C@@H]1CN(C[C@H](O)CO)CCN21)c1c(F)cccc1Cl` . Its measured Cellular Reporter Assay Amax is 3.7

Consider `O=S(=O)(c1cccc(C(F)(F)F)c1)N1C[C@@H]2CNCCN2c2ccc(/C=C/c3c(Cl)cccc3C(F)(F)F)cc21` . Its measured Cellular Reporter Assay Amax is 3.2

Consider CC(C(=O)O)N1CCN2c3ccc(-c4cc(F)cc(OC(F)F)c4)cc3N(S(=O)(=O)c3cccc(C(F)(F)F)c3)C[C@@H]2C1 (stereo partly drawn) . Its measured Cellular Reporter Assay Amax is 2.3

Consider `C/C(=C\c1ccc2c(c1)N(S(=O)(=O)c1cccc(C(F)(F)F)c1)C[C@@H]1CN(C(CO)(CO)C(N)=O)CCN21)c1c(F)cccc1Cl` . Its measured Cellular Reporter Assay Amax is 3.7

Consider CS(=O)(=O)CCOC1CCN2c3ccc(-c4cc(F)cc(OC(F)F)c4)cc3N(S(=O)(=O)c3cccc(C(F)(F)F)c3)C[C@@H]2C1 (stereo partly drawn) . Its measured Cellular Reporter Assay Amax is 3.2

---

target: RORγt-LBD (Homo sapiens); assay: Time-resolved fluorescence resonance energy-transfer assay (TR-FRET), co-activator peptide recruitment; type: biochemical; conditions: His-RORγt-LBD 30 nM, SRC peptide 500 nM; agonistic activity; averages of one or more measurements; read-out: TR-FRET Biochemical EC50/
attribute.measured: pEC50
The meaning of pEC50 here: minus log10 of the concentration in molar units.

Consider O=S(=O)(c1cccc(C(F)(F)F)c1)N1C[C@@H]2CC(O)CCN2c2ccc(-c3cc(F)cc(OC(F)F)c3)cc21 (stereo partly drawn) [Example 105] . Its measured pEC50 is 6.77

Consider CN1c2ccc(-c3cc(F)cc(OC(F)F)c3)cc2N(S(=O)(=O)c2cccc(C(F)(F)F)c2)C[C@@H]1CCC(=O)O [Example 5] . Its measured pEC50 is 8.01

Consider O=C(O)CN1CCN2c3ccc(/C=C/c4c(Cl)cccc4C(F)(F)F)cc3N(S(=O)(=O)c3cccc(C(F)(F)F)c3)C[C@H]2C1 [Example 83] . Its measured pEC50 is 7.54
